- measured_target: human recombinant FGFR1 (Homo sapiens, UniProt P11362)
- Sequence (P11362 22-822): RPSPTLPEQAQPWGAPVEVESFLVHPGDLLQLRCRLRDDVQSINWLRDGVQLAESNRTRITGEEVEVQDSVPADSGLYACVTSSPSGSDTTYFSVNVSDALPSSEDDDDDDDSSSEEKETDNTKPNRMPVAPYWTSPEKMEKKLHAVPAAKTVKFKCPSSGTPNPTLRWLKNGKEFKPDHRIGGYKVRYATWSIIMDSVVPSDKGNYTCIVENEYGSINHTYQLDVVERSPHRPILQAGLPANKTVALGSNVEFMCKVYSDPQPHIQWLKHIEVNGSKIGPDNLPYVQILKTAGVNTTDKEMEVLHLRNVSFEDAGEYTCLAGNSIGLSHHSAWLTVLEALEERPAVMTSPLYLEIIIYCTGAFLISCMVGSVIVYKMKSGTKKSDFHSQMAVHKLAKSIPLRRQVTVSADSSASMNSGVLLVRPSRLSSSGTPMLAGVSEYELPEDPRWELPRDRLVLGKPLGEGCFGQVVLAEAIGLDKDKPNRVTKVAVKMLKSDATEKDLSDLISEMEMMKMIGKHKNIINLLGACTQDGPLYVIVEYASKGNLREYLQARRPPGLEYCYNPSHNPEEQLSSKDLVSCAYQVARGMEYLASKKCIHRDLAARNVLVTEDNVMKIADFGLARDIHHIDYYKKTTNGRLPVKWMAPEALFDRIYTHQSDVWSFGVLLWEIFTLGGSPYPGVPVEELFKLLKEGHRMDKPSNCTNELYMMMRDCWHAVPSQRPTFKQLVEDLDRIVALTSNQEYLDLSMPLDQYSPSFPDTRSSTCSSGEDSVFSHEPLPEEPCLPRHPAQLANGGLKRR
- test_method_notes: FGFR family enzymatic activity assay (Caliper-based kinase assay), FGFR1
- particulars: FGFR1 0.5 nM, ATP 100 μM, peptide substrate 1 μM, room temperature 3 h
- From the text: A Caliper-based kinase assay (Caliper Life Sciences, Hopkinton, Mass.) was used to measure inhibition of FGFR family (FGFR1, FGFR2, FGFR3, FGFR4) kinase activity of a compound of Formula (I′) or (I). […] This value is presented as the IC50.
attribute_measured: IC50 (nM)

# annotated cases, reported IC50 shown
q: Data request, read-out IC50, for C=CC(=O)Nc1ccc(CCn2c(=O)c(-c3c(Cl)c(OC)cc(OC)c3Cl)cc3cnc(NC(C)(CO)CO)nc32)nc1
a: 1.2

q: Consider next the molecule C=CC(=O)Nc1ccc(CCn2c(=O)c(-c3c(Cl)c(OC)cc(OC)c3Cl)cc3cnc(NC(CO)CO)nc32)cc1 in the same way.
a: 0.8

q: Consider next the molecule C=CC(=O)Nc1ccc(CCn2c(=O)c(-c3c(Cl)c(OC)cc(OC)c3Cl)cc3cnc(NCC(C)(C)CO)nc32)cc1 in the same way.
a: 0.7

q: Consider next the molecule C=CC(=O)Nc1ccc(CCn2c(=O)c(-c3cc(OC)cc(OC)c3Cl)cc3cnc(NCC(C)(C)N4CCOCC4)nc32)cc1 in the same way.
a: 1.9

q: Consider next the molecule C=CC(=O)Nc1ccc(CCn2c(=O)c(-c3cc(OC)cc(OC)c3Cl)cc3cnc(NCCN4C[C@@H](C)N[C@@H](C)C4)nc32)cc1 in the same way.
a: 1.2

[A] C=CC(=O)Nc1ccc(CCn2c(=O)c(-c3c(Cl)c(OC)cc(OC)c3Cl)cc3cnc(NC(CO)CO)nc32)nc1
[B] C=CC(=O)Nc1ccc(CCn2c(=O)c(-c3cc(OC)cc(OC)c3Cl)cc3cnc(NCC4CC4)nc32)nc1
[C] C=CC(=O)Nc1ccc(CCn2c(=O)c(-c3cc(OC)cc(OC)c3Cl)cc3cnc(Nc4ccccn4)nc32)nc1
q: I would appreciate it if you could sort these 3 molecules by IC50, starting from the smallest number. Record the ranking as a list of labels in the requested order.
a: B, A, C
(B: 0.6 nM, A: 1.2 nM, C: 8.2 nM)

* * *

- measured_target: human recombinant FGFR3 (Homo sapiens, UniProt P22607)
- Sequence (P22607 23-806): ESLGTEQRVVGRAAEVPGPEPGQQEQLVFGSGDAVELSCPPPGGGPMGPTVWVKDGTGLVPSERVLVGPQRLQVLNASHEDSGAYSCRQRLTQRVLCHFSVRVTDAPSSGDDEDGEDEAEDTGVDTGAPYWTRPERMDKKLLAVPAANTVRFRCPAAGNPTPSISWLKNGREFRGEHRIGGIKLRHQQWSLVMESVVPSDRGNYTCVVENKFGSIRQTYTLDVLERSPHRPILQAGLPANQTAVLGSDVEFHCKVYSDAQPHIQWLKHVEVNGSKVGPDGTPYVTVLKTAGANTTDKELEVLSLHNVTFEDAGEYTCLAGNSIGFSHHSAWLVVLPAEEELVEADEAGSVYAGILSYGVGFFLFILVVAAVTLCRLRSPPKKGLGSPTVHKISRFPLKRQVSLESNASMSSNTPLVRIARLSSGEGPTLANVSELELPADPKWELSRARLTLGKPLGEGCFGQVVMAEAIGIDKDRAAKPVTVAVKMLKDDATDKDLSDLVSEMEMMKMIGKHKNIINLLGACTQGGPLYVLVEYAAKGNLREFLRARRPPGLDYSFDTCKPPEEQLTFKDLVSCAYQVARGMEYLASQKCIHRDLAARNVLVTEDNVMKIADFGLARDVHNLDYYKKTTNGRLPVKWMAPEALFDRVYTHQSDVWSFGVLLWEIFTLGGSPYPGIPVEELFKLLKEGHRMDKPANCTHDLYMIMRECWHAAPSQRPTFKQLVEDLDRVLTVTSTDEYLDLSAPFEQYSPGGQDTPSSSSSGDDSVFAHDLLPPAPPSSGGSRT
- test_method_notes: FGFR family enzymatic activity assay (Caliper-based kinase assay), FGFR3
- particulars: FGFR3 0.9 nM, ATP 120 μM, peptide substrate 1 μM, room temperature 3 h
Structures can show the parent of a compound that is named as a salt.
attribute_measured: IC50 (nM)

# annotated cases, reported IC50 shown
q: Data request, read-out IC50, for C=CC(=O)Nc1cccc(Cn2c(=O)c(-c3c(Cl)c(OC)cc(OC)c3Cl)cc3cnc(NCCCCN(CC)CC)nc32)c1 [Example 6]
a: 3.1

q: Consider next the compound C=CC(=O)Nc1ccc(CCn2c(=O)c(-c3cc(OC)cc(OC)c3Cl)cc3cnc(NCCN4CCN(C(C)=O)CC4)nc32)cc1 [Example 66] in the same way.
a: 6.3

q: Consider next the compound C=CC(=O)Nc1ccc(CCn2c(=O)c(-c3c(Cl)c(OC)cc(OC)c3Cl)cc3cnc(NCCCCN(CC)CC)nc32)cc1 [Example 5, hydrochloride] in the same way.
a: 5.5

[a] C=CC(=O)Nc1ccc(CCn2c(=O)c(-c3cc(OC)cc(OC)c3Cl)cc3cnc(NCCN4CCOCC4)nc32)nc1 [Example 39]
[b] C=CC(=O)Nc1ccc(CCn2c(=O)c(-c3c(Cl)c(OC)cc(OC)c3Cl)cc3cnc(NC)nc32)nc1 [Example 38]
[c] C=CC(=O)Nc1ccc(CCn2c(=O)c(-c3cc(OC)cc(OC)c3Cl)cc3cnc(NCCN4CCN(CC(C)(C)O)CC4)nc32)cc1 [Example 68]
q: I would appreciate it if you could sort these 3 compounds by IC50, starting from the smallest number. Record the ranking as a list of labels in the requested order.
a: b, a, c
(b: 3.3 nM, a: 5.4 nM, c: 8.1 nM)
